Test system: Mycobacterium tuberculosis
Assay: Cornell - Phenotypic assay to identify agents that inhibit growth of Mycobacterium tuberculosis
Format: functional
Design: scale not given: direction of the effect not stated beside the values
Conditions: 10 mM as filed; unlikely as a test dose
In all, about 53,000 compounds went through this assay and about 900 (1.7%) showed an effect of 50% or more. Only a selection was taken, and strong results are over-represented in it overall.
Decide using Percent Effect: a value greater than or equal to 10% is met, a smaller one is not met.

Answered examples (5):
>  <COMPOUND>
COC(=O)[C@@H]1Cc2c[nH]c3cccc(c23)[C@H](CC(C)C)N1

>  <SYSTEM NAME>
Mycobacterium tuberculosis

>  <LABEL CLASS>
met

$$$$
>  <COMPOUND>
CCOc1ccccc1C(=O)N1CC(=O)N(C2CCC2)CC(O)C1 (centres undefined)

>  <SYSTEM NAME>
Mycobacterium tuberculosis

>  <LABEL CLASS>
met

$$$$
>  <COMPOUND>
Cc1ccc(Cl)cc1N1CCN(CC(=O)NCc2ccco2)CC1

>  <SYSTEM NAME>
Mycobacterium tuberculosis

>  <LABEL CLASS>
met

$$$$
>  <COMPOUND>
Cc1nn(C)c(C)c1CC(=O)N1CCCC(CNS(C)(=O)=O)C1 (centres undefined)

>  <SYSTEM NAME>
Mycobacterium tuberculosis

>  <LABEL CLASS>
not met

$$$$
>  <COMPOUND>
COC(=O)c1ccc(N2CCC(C(O)c3ccccc3)CC2)nn1 (centres undefined)

>  <SYSTEM NAME>
Mycobacterium tuberculosis

>  <LABEL CLASS>
met

$$$$

Quick check: does `CNc1cc(-c2ccc(COCCN)cc2)c2cc[nH]c2n1` have Percent Effect greater than or equal to 10%?
met

Test whether the compound `O=C(Nc1nc2c(s1)CN(S(=O)(=O)C1CC1)CC2)c1c(F)cccc1F` records Percent Effect of 10% or higher.
not met

Hi team, for `COCCNS(=O)(=O)c1ccc(CNc2ncccc2C#N)cc1` , is the recorded Percent Effect at or above 10%?
not met

Please indicate if the recorded Percent Effect for `Cc1cccc(NS(=O)(=O)c2cnn(C)c2)c1C#N` meets or exceeds 10%.
not met

* * *

Tested on: Mycobacterium tuberculosis
Assay: Cornell - Phenotypic assay to identify agents that inhibit growth of Mycobacterium tuberculosis
Type: functional
Set-up: scale not given: direction of the effect not stated beside the values
Conditions: 10 mM as filed; unlikely as a test dose
Screen size: about 53,000 compounds; about 900 (1.7%) showed an effect of 50% or more. What follows is part of a selection rich in strong results, with near analogues and random picks from the rest.
Percent Effect strictly under 30% means Satisfied; at 30% or over means Not satisfied.

>  <COMPOUND>
CC(NC(=O)OC(C)(C)C)c1nnc(S(=O)(=O)Cc2ccc(Cl)cc2)o1 (stereo not given)

>  <LABEL CLASS>
Not satisfied

$$$$
>  <COMPOUND>
CN1CCOC(c2cncc(CCC(=O)N(C)C)n2)C1 (stereo not given)

>  <LABEL CLASS>
Satisfied

$$$$

In the record for `Cc1cccc(CS(=O)(=O)c2nnc([C@@H](N)Cc3ccccc3)o2)c1.Cl` , is Percent Effect less than 30%?
Satisfied

Take the compound Cc1ccccc1CS(=O)(=O)c1nnc(C(C)NC(=O)OC(C)(C)C)o1 (stereo not given) and say whether its Percent Effect is less than 30%.
Not satisfied

Lab log: compare recorded Percent Effect with 30%; is it strictly lower for Cc1noc(C(C)NC(=O)[C@@H](C)NC(=O)OC(C)(C)C)n1 (stereo not given in full) ?
Satisfied
